Experiment: self-inhibition, in situ perfusion: [^3H]-ADMA with 100 μM unlabelled ADMA
Type: in vivo, mouse
Conditions: male, BALB/c, mouse, hippocampus, other: in situ brain perfusion, with unlabelled ADMA 100 µM, Difference (ADMA minus Sucrose), hippocampus, + 100uM un-labelled ADMA, 10 mins, Balb/c ♂, 5ml/min; mean
Structures can show the parent of a compound that is named as a salt.
READOUT NAME: Kp at 10 min, 62.5 nM
Output spec: single numeric token, no unit.

Problem: Item CN(C)C(N)=NCCC[C@H](N)C(=O)O [ADMA, N^G,N^G-dimethylarginine dihydrochloride] has what recorded Kp at 10 min, 62.5 nM?
Result: 0.056
